Entries and their measured MIC follow.
system: Streptococcus pneumoniae; assay: Antibacterial activity against Streptococcus pneumoniae CL2883 by turbidity method; assay type: functional; details: read-out: MIC100
Record the value in ng/mL, omitting the unit from your answer.

Check out these entries, answers already filled in.
1. CO/C(C)=C1/NC(=O)[C@H]([C@@H](C)O)NC(=O)c2csc(n2)-c2cc(O)c(-c3nc(CNCCO)cs3)nc2-c2csc(n2)[C@@H]2COC(=O)c3c4c5c(cccc5n3O)COC(=O)[C@@H](O[C@H]3C[C@](C)(O)[C@H](N(C)C)[C@H](C)O3)[C@@H](OC4)[C@H](NC(=O)c3csc1n3)c1nc(cs1)C(=O)N2    0.46
2. C=C(NC(=O)c1csc(-c2nc3c(cc2O)-c2nc(cs2)C(=O)N[C@@H]([C@@H](C)O)C(=O)N/C(=C(\C)OC)c2nc(cs2)C(=O)N[C@@H]2c4nc(cs4)C(=O)N[C@@H](COC(=O)c4c5c6c(cccc6n4O)COC(=O)[C@@H](O[C@H]4C[C@](C)(O)[C@H](N(C)C)[C@H](C)O4)[C@H]2OC5)c2nc-3cs2)n1)C(N)=O    2
3. CO/C(C)=C1/NC(=O)[C@H]([C@@H](C)O)NC(=O)c2csc(n2)-c2cc(O)c(-c3nc(CNC(=O)CN4CCOCC4)cs3)nc2-c2csc(n2)[C@@H]2COC(=O)c3c4c5c(cccc5n3O)COC(=O)[C@@H](O[C@H]3C[C@](C)(O)[C@H](N(C)C)[C@H](C)O3)[C@@H](OC4)[C@H](NC(=O)c3csc1n3)c1nc(cs1)C(=O)N2    0.46

Moving on to another compound below.
Look up MIC: CO/C(C)=C1/NC(=O)[C@H]([C@@H](C)O)NC(=O)c2csc(n2)-c2cc(O)c(-c3nc(CNC(=O)CN(C)C)cs3)nc2-c2csc(n2)[C@@H]2COC(=O)c3c4c5c(cccc5n3O)COC(=O)[C@@H](O[C@H]3C[C@](C)(O)[C@H](N(C)C)[C@H](C)O3)[C@@H](OC4)[C@H](NC(=O)c3csc1n3)c1nc(cs1)C(=O)N2
7.5

Attribution: ChEMBL document CHEMBL2311426
